- tested.target: Prostaglandin G/H synthase 1 (Homo sapiens)
- Sequence (P23219 whole entry): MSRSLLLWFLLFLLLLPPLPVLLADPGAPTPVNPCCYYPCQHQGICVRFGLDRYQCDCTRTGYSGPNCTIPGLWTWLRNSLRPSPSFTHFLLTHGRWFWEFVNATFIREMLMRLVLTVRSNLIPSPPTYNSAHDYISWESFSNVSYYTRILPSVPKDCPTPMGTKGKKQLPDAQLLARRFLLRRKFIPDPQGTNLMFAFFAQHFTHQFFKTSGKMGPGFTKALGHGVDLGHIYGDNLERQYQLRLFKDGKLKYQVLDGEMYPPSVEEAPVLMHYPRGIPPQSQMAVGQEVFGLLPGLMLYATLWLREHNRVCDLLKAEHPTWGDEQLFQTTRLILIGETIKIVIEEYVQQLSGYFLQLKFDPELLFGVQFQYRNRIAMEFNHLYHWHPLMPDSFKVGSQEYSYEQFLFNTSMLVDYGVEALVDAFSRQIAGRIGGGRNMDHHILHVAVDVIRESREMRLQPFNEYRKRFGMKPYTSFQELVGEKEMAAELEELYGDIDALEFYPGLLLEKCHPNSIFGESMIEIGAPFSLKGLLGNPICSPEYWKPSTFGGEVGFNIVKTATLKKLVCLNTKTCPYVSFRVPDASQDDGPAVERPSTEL
- experimental.protocol: Inhibition of COX1 in human whole blood assessed as effect on A23187-induced thromboxane B2 production at 10 uM relative to control; values are per cent of control
# class 1 = residual activity below 70% (exclusive); class 0 = residual activity at/above 70%

COc1ccc2c(c1)c(CC(=O)NCC(C)(C)CO[N+](=O)[O-])c(C)n2C(=O)c1ccc(Cl)cc1 : class 1
COc1ccc2c(c1)c(CC(=O)NOC(C)=O)c(C)n2C(=O)c1ccc(Cl)cc1 : class 1
COc1ccc2c(c1)c(CC(=O)N(OC(C)=O)C(C)=O)c(C)n2C(=O)c1ccc(Cl)cc1 : class 1
COc1ccc2c(c1)c(CCO[N+](=O)[O-])c(C)n2C(=O)c1ccc(Cl)cc1 : class 0
Cc1c(CC(=O)NCCCO[N+](=O)[O-])c2cc(O)ccc2n1C(=O)c1ccc(Cl)cc1 : class 1
COc1ccc2c(c1)c(CCN)c(C)n2C(=O)c1ccc(Cl)cc1 : class 0

INPUT: API: query returns whether the molecule falls strictly under 70% in residual activity. Query: `COc1ccc2c(c1)c(CC(=O)NCCCO)c(C)n2C(=O)c1ccc(Cl)cc1`
OUTPUT: class 1

INPUT: API: query returns whether the molecule falls strictly under 70% in residual activity. Query: `COc1ccc2c(c1)c(CCOC(=O)NS(=O)(=O)NCCCO[N+](=O)[O-])c(C)n2C(=O)c1ccc(Cl)cc1`
OUTPUT: class 0
